# systemTested: Acetyl-CoA carboxylase 2 (Homo sapiens, UniProt O00763)
# Sequence (O00763 whole entry): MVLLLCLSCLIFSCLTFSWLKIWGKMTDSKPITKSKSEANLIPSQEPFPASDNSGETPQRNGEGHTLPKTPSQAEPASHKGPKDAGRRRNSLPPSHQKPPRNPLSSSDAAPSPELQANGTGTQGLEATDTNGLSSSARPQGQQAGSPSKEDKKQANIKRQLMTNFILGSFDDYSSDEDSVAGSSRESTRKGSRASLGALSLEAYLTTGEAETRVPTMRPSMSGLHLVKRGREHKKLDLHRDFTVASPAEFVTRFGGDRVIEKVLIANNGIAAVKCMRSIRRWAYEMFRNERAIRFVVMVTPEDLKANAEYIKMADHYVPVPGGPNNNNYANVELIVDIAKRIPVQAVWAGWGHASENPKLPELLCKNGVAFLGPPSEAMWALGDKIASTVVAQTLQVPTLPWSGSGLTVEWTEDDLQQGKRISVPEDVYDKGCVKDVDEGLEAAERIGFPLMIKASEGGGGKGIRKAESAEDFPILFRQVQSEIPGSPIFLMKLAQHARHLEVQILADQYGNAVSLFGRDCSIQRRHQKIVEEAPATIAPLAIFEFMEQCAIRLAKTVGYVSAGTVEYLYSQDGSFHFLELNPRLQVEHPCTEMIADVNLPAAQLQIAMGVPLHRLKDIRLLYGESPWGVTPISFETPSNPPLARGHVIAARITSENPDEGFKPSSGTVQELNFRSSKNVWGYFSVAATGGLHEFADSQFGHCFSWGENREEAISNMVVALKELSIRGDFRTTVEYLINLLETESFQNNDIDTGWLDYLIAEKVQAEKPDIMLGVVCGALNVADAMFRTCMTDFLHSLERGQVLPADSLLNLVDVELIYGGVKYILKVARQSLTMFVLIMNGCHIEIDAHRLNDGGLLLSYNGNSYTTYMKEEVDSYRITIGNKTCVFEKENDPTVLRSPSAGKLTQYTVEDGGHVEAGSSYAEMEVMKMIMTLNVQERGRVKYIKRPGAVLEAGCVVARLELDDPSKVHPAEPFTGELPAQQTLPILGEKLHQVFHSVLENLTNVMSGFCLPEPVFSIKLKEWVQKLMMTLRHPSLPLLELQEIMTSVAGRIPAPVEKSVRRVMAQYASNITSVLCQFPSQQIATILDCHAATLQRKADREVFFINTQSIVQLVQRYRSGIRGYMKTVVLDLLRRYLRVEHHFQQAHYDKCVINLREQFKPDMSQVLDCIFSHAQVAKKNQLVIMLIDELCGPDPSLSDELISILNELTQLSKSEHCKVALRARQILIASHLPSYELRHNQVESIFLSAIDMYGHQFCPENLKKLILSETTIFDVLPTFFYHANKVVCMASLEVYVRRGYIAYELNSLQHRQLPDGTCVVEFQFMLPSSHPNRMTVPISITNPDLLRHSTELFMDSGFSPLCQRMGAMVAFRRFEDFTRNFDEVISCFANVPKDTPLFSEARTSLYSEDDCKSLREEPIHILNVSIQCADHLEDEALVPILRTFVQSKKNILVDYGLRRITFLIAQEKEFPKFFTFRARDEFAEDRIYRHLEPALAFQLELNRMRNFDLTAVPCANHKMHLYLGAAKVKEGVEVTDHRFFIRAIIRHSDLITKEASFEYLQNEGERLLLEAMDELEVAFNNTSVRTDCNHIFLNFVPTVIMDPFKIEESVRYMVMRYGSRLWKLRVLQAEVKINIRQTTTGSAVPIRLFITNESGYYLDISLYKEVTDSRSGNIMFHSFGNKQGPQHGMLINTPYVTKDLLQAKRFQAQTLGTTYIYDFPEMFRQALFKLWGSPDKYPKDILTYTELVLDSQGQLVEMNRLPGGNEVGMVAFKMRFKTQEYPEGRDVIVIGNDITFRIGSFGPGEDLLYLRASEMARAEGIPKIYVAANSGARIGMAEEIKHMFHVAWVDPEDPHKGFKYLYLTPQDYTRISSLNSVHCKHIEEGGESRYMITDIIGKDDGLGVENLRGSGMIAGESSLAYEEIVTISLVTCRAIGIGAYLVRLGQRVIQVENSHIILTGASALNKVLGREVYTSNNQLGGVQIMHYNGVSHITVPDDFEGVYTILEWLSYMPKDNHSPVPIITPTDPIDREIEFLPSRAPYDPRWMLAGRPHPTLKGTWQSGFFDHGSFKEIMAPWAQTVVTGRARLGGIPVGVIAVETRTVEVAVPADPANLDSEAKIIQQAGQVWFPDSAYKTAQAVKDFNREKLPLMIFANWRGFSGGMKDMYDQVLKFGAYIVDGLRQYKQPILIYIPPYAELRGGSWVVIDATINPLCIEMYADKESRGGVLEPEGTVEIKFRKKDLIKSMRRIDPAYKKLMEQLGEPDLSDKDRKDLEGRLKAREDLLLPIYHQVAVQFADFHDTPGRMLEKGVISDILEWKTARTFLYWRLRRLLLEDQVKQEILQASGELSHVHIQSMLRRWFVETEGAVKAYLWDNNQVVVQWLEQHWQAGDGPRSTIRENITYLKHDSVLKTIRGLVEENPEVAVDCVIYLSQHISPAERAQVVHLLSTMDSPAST
# assayExplanation: Inhibition of human recombinant ACC 2 expressed in baculovirus expression system by FAS-coupled assay
experimentalEndpoint: pIC50
// pIC50 here means minus log10 of the molar concentration (mol/L)

Data point: CCCc1ccc(Oc2ccc(-c3ccc(C(C)NC(C)=O)cc3)cc2)cc1 (configuration not stated) ; pIC50 = 6.94

Per the record, CCCOc1ccc(Oc2ccc(-c3ccc(C(C)NC(=O)OCC)cc3)cc2)cc1 (configuration not stated) has pIC50 of 5.51

###

# systemTested: Acetyl-CoA carboxylase 1 (Homo sapiens, UniProt Q13085)
# assayExplanation: Inhibition of human recombinant ACC 1 expressed in baculovirus expression system by FAS-coupled assay
experimentalEndpoint: IC50 (µM)
The reply should be a number in µM, with the unit left off.

Field: example entries. Status: answers known.
- molecule: "CCCOc1ccc(Oc2ccc(-c3ccc(C(C)NC(=O)CC)cc3)cc2)cc1 (stereo not drawn)"
  experimentalEndpoint: "IC50"
  valueReported: 0.047
- molecule: "CC(=O)NC(C)c1ccc(-c2ccc(Oc3ccc(OC(C)C)cc3)cc2C)c(C)c1 (stereo not drawn)"
  experimentalEndpoint: "IC50"
  valueReported: 0.592
- molecule: "COCCc1ccc(Oc2ccc(-c3ccc(C(C)NC(C)=O)cc3)cc2)cc1 (stereo not drawn)"
  experimentalEndpoint: "IC50"
  valueReported: 0.089
- molecule: "CCOc1ccc(Oc2ccc(-c3ccc(C(C)NC(C)=O)cc3)cc2)cc1 (stereo not drawn)"
  experimentalEndpoint: "IC50"
  valueReported: 1.63
- molecule: "CCCOc1ccc(Oc2ccc(-c3ccc(C(C)NC(=O)C(C)C)cc3)cn2)cc1 (stereo not drawn)"
  experimentalEndpoint: "IC50"
  valueReported: 0.451
- molecule: "CCCOc1ccc(Oc2ccc(-c3ccc(C(C)NC(=O)C4CC4)cc3)cn2)cc1 (stereo not drawn)"
  experimentalEndpoint: "IC50"
  valueReported: 0.319
- molecule: "CC(=O)NC(C)c1ccc(-c2ccc(Oc3ccc(Cc4ccccc4)cc3)cc2)cc1 (stereo not drawn)"
  experimentalEndpoint: "IC50"
  valueReported: 0.039
- molecule: "CC(=O)NC(C)c1ccc(-c2ccc(Oc3ccc(OC(C)C)cc3)cc2)cc1 (stereo not drawn)"
  experimentalEndpoint: "IC50"
  valueReported: 0.017
- molecule: "CC(=O)NC(C)c1ccc(-c2ccc(Oc3ccc(-c4c(O)ccc5c4CCCC5)cc3)cc2)cc1 (stereo not drawn)"
  experimentalEndpoint: "IC50"
  valueReported: 0.14
- molecule: "CCCOc1ccc(Oc2ccc(-c3ccc([C@H](C)NC(C)=O)cc3)cn2)cc1"
  experimentalEndpoint: "IC50"
  valueReported: 0.035

Lab note: molecule CCCOc1ccc(Oc2ccc(-c3ccc(C(C)NC(=O)C(C)O)cc3)cc2)cc1 (racemic) tested on Acetyl-CoA carboxylase 1 (Homo sapiens, UniProt Q13085); recorded IC50 was 2.06

Entry CCCc1ccc(Oc2ccc(-c3ccc(C(C)NC(C)=O)cc3)cc2)cc1 (stereo not drawn) , tested on Acetyl-CoA carboxylase 1 (Homo sapiens, UniProt Q13085), has a reported IC50 of 0.081

The value of IC50 recorded for CCCOc1ccc(Oc2ccc(-c3ccc(C(C)NC(=O)COC)cc3)cc2)cc1 (stereo not drawn) when tested on Acetyl-CoA carboxylase 1 (Homo sapiens, UniProt Q13085) reads 0.753
